# Tested on: NB-4
# assay: Cytotoxicity against human NB4 cells after 48 hrs by SRB assay
# Format: functional, cell-based
# experimental.conditions: NB-4, 48 h
pIC50: −log10 of the molar value.
Here the recorded pIC50 is given for each entry.
endpoint.name: pIC50

given.smiles	censoring.operator	observed.value
O=C(CCc1ccc(/C=N/OCc2ccc([N+](=O)[O-])cc2)cc1)NO	=	6.02
O=C(/C=C/c1ccc(/C=N/OCc2ccccc2)cc1)NO	=	6.21
O=C(C#Cc1ccc(/C=N/OCc2ccc([N+](=O)[O-])cc2)cc1)NO	<	4.70
Nc1ccccc1NC(=O)/C=C/c1ccc(/C=N/OCCN2CCOCC2)cc1	=	5.05
O=C(/C=C/c1ccc(/C=N/OCc2ccc([N+](=O)[O-])cc2)cc1)NO	=	6.12
O=C(/C=C/c1ccc(/C=N/OCc2c(F)c(F)c(F)c(F)c2F)cc1)NO	=	6.15
COC(=O)c1ccc(CO/N=C/c2ccc(/C=C/C(=O)NO)cc2)cc1	=	6.09
O=C(/C=C/c1ccc(/C=N/Oc2ccccc2)cc1)NO	=	5.57
O=C(/C=C/c1ccc(/C=N/O)cc1)NO	=	5.54
C=CCO/N=C/c1ccc(/C=C/C(=O)NO)cc1	=	5.85
O=C(/C=C/c1ccc(/C=N/OCCN2CCOCC2)cc1)NO	=	5.77
Nc1ccccc1NC(=O)/C=C/c1ccc(/C=N/OCc2ccc([N+](=O)[O-])cc2)cc1	<	4.70
O=C(/C=C/c1cccc(/C=N/OCCN2CCOCC2)c1)NO	=	5.72

---

Observed IC50 values for Histone deacetylase 1 (Homo sapiens, UniProt Q13547) are listed in what follows.
endpoint.name: IC50 (µM)

given.smiles	endpoint.name	observed.value
O=C(/C=C/c1ccc(/C=N/OCCN2CCOCC2)cc1)NO	IC50	3.06
O=C(/C=C/c1ccc(/C=N/OCc2ccc([N+](=O)[O-])cc2)cc1)NO	IC50	0.79
COC(=O)c1ccc(CO/N=C/c2ccc(/C=C/C(=O)NO)cc2)cc1	IC50	1.82
O=C(/C=C/c1ccc(-c2cc(CN3CCOCC3)on2)cc1)NO	IC50	6.26

---

# system.name: Protein deacetylase HDAC6 (Homo sapiens, UniProt Q9UBN7)
# Sequence (Q9UBN7 whole entry): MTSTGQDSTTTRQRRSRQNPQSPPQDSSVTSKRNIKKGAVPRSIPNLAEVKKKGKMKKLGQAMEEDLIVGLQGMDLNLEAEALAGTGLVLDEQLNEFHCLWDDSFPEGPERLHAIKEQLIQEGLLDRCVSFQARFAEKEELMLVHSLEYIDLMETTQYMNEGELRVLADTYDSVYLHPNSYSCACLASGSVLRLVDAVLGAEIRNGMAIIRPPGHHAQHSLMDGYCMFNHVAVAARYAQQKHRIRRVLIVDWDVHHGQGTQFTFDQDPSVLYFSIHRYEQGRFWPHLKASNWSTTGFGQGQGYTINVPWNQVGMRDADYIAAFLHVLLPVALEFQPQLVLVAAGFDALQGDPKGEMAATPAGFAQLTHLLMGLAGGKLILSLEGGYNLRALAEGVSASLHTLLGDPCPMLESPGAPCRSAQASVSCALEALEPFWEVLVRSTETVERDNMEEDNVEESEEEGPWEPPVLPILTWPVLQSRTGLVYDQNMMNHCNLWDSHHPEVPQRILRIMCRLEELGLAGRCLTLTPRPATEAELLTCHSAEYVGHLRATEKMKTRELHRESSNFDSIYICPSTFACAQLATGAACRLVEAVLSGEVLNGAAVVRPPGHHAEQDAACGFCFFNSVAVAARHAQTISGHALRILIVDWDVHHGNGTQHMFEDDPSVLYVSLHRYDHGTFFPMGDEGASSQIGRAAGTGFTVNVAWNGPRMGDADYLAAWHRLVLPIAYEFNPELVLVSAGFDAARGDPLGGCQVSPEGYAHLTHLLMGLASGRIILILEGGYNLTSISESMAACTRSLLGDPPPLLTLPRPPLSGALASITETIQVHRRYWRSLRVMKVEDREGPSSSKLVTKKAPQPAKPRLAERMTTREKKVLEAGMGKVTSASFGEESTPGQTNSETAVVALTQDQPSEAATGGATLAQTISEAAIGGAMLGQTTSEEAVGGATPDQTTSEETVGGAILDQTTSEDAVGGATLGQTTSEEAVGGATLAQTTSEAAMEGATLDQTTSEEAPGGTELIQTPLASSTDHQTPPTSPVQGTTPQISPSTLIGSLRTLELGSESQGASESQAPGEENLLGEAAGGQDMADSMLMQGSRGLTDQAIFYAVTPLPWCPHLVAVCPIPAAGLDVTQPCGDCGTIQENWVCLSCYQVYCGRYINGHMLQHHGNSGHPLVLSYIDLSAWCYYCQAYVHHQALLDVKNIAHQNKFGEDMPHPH
endpoint.name: IC50 (nM)

given.smiles	observed.value
O=C(/C=C/c1ccc(/C=N/OCCN2CCOCC2)cc1)NO	303
O=C(/C=C/c1ccc(/C=N/OCc2c(F)c(F)c(F)c(F)c2F)cc1)NO	661
COC(=O)c1ccc(CO/N=C/c2ccc(/C=C/C(=O)NO)cc2)cc1	94
O=C(/C=C/c1ccc(/C=N/OCc2ccc([N+](=O)[O-])cc2)cc1)NO	124
